# pIC50 annotations
test system: phospho-ERK in MIA PaCa2 or H358 cells; test: Phospho-ERK assay (AlphaLisa); type: cell-based; conditions: 1.5 h, MIA PaCa2 or H358 cells, compound incubated 1.5 hours; read-out: IC50 (p-ERK)
pIC50: −log10 of the molar value.

// worked examples, pIC50 included
molecule="C[C@@H]1OCC2(CCN(c3cnc(Sc4ccc5ncn(Cc6nccs6)c(=O)c5c4Cl)cn3)CC2)[C@@H]1N [Example 35]" measuredparameter=pIC50 measvalue="> 7.35"
molecule="COCCn1cnc2ccc(Sc3nc(C(N)=O)c(N4CCC5(CC4)CO[C@@H](C)[C@H]5N)nc3N)c(Cl)c2c1=O [Example 154]" measuredparameter=pIC50 measvalue="5.82 to 7.35"
molecule="COCCn1cnc2ccc(Sc3cnc(N4CCC5(CC4)Cc4scnc4[C@H]5N)c(C(N)=O)n3)c(Cl)c2c1=O [Example 172]" measuredparameter=pIC50 measvalue="> 7.35"

Incoming: For the molecule C[C@@H]1OCC2(CCN(c3cnc(Sc4ccc5ncn(CCN6CCOC6=O)c(=O)c5c4Cl)cn3)CC2)[C@@H]1N [Example 114] , what pIC50 is on record?
Outgoing: > 7.35

Incoming: Here is the next molecule: Cn1c(N2CCN(CC(N)c3ccccc3)CC2)nc(N)c(Sc2cccc(Cl)c2Cl)c1=O (centres unmarked) [Example 190]
Outgoing: < 5.82

Incoming: Same question for CC1(N)CCN(c2cnc(Sc3ccc4ncn(-c5ccccc5)c(=O)c4c3Cl)cn2)CC1 [Example 28] please.
Outgoing: 5.82 to 7.35

Incoming: Next: Cn1c(N2CCN(CCN)CC2)nc(N)c(Sc2ccnc(Cl)c2Cl)c1=O [Example 193]
Outgoing: < 5.82

Incoming: Do the same for CC(C)(O)Cn1cnc2ccc(Sc3cnc(N4CCC5(CC4)Cc4scnc4[C@@H]5N)cn3)c(Cl)c2c1=O [Example 152] please
Outgoing: 5.82 to 7.35

Incoming: Try the molecule C[C@@H]1OCC2(CCN(c3cnc(Sc4ccc5ncn(Cc6ccc(F)cc6)c(=O)c5c4Cl)cn3)CC2)[C@@H]1N [Example 40]
Outgoing: 5.82 to 7.35

Incoming: Same question, N[C@H]1c2cccnc2CC12CCN(c1cnc(Sc3ccc4ncn(Cc5cccnc5)c(=O)c4c3Cl)cn1)CC2 [Example 106] this time
Outgoing: 5.82 to 7.35

Incoming: Moving on to C[C@@H]1OCC2(CCN(c3cnc(Sc4ccc5nc(OC6CCOC6)[nH]c5c4Cl)cn3)CC2)[C@@H]1N (some centres unmarked) [Example 126]
Outgoing: 5.82 to 7.35

Incoming: Also, C[C@@H]1OCC2(CCN(c3cnc(Sc4ccc5ncn(Cc6ccc7cc[nH]c7n6)c(=O)c5c4Cl)cn3)CC2)[C@@H]1N [Example 42] please.
Outgoing: > 7.35

* * *

target: SHP2 (full length) (Homo sapiens); construct: SHP2 (full length, diluted to 100 pM final concentration in reaction buffer, BPS bioscience, US); purchased BPS bioscience, US; experiment: Phosphatase assay (PTPase assay) with DiFMUP substrate; type: biochemical; conditions: SHP2 activated with SHP2 activating peptide; DiFMUP 80 μM, 2 hours; fluorescence; read-out: IC50 (PTPase aS say)
Sequence (Q06124 whole entry): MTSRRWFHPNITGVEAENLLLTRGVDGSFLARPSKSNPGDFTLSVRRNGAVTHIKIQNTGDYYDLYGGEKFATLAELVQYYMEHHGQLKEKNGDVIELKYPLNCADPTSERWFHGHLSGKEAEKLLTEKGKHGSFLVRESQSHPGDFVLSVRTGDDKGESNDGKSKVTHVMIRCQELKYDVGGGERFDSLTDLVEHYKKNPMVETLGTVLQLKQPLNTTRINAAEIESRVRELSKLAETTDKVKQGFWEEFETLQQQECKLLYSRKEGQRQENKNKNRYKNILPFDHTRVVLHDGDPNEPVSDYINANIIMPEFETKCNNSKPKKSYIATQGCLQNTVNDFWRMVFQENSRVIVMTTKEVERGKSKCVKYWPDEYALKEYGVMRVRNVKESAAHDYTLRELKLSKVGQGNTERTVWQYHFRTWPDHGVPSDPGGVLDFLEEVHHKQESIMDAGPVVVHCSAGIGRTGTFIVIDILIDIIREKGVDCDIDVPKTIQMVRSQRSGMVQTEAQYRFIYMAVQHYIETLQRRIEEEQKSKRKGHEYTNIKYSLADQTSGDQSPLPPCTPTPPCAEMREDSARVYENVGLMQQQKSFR
pIC50: −log10 of the molar value.
measuredParameter: pIC50

smilesdata=C[C@@H]1OCC2(CCN(c3cnc(Sc4ccc5ncn(Cc6ccno6)c(=O)c5c4Cl)cn3)CC2)[C@@H]1N tgt="SHP2 (full length) (Homo sapiens)" measuredparameter=pIC50 measvalue="> 8.52"
smilesdata=C[C@@H]1OCC2(CCN(c3cnc(Sc4ccc5ncn(CC6(F)CCOCC6)c(=O)c5c4Cl)cn3)CC2)[C@@H]1N tgt="SHP2 (full length) (Homo sapiens)" measuredparameter=pIC50 measvalue="> 8.52"
smilesdata=CCOC(=O)c1cccc(Sc2c(N)nc(N3CCC(C)(N)CC3)n(C)c2=O)c1Cl tgt="SHP2 (full length) (Homo sapiens)" measuredparameter=pIC50 measvalue="< 7.00"
smilesdata=Cn1c(N2CCN(CCN)CC2)nc(N)c(Sc2cccc(Cl)c2Cl)c1=O tgt="SHP2 (full length) (Homo sapiens)" measuredparameter=pIC50 measvalue="< 7.00"
smilesdata=CC(=O)NCCn1cnc2ccc(Sc3cnc(N4CCC5(CC4)CO[C@@H](C)[C@H]5N)cn3)c(Cl)c2c1=O tgt="SHP2 (full length) (Homo sapiens)" measuredparameter=pIC50 measvalue="> 8.52"
smilesdata=C[C@@H]1OCC2(CCN(c3cnc(Sc4ccc5ncn(C6CCCCC6)c(=O)c5c4Cl)cn3)CC2)[C@@H]1N tgt="SHP2 (full length) (Homo sapiens)" measuredparameter=pIC50 measvalue="7.00 to 8.52"

Now consider a different compound.
Incoming: Value lookup for pIC50; key = COCCn1cnc2ccc(Sc3nc(C(N)=O)c(N4CCC5(CC4)CO[C@@H](C)[C@H]5N)nc3N)c(Cl)c2c1=O
Outgoing: 7.00 to 8.52

Provenance of the data: patent US12029739B2
